- test.summary: yeast display, Sf9 membrane polyspecificity reagent, FACS + sequencing; frameworks hold sequencing errors
measured.parameter: polyreactivity (PSR sort gate)

Would you please look over these solved cases?
QVQLVESGGGLDQAGGSLRLSCAASGSTFRSNAMGWYRQAPGKERELVAGITSGTSTNYADSVKGRFTISRDNAKNTVYLQMNSLKPEDTAVYYCNTDRIWYGPEYDYWGQGTQVTVSS: low polyreactivity
QVQLVESGGGLVQAGGSRRLSCAASGRIFGVYAMGWYRQAPGKERELVAAIDRRGGRTYYADSVKGRFTISRDNAKNTVYLQMNSLKPEDTAVYYFATARYRADMGYWGQGTQVTVSS: high polyreactivity
QDQLVESGGGLVQAGGSLRLSCAACGIMFGKYAMGWYREAPGKERELVAAITWSGGRTYYADSVTGRFTISRANAKNTVYLPMNSLKPEDTAVYYCAADVKYGYDWGQGTQVTVSS: high polyreactivity
QVQLVESGGGLVQAGGSLRLSCAASGRTFWGYPMGWYRQAPGKERELVAAISSGGSTHYADSVKGRFTISRDNAKNTVYLQMNSLKPEDTAVYYCAAAVGYYAFGTYPFDDWPYDYWGQGTQVTVSS: high polyreactivity
QVQLVESGGGLVQAGGSLRLSCAASGLTFDLYNMGVYRKAPGKERELVAAISLSGGSTYYADSVKGRFTISRDNAKNTVYLQMNILKPDYTAVYYCAAAHSSSVIVEYDYWGQGTQVTVSS: low polyreactivity

Input line: Reported polyreactivity (PSR sort gate) for QVQLVESGGGLVQAGGSLRLSCAASGIIFFPYPMGWYRQAPGKERELVASINISDSSTYYADSVKGRFTISRDTAKNTVDLQMNSLKPEDTAVYYCAADNRGDSWYWHGYWGQGTQVSVSS : what is it?
Output line: low polyreactivity

Input line: Quick one: polyreactivity (PSR sort gate) for QVQLVESGGGLVQAGGSLRLSCAASGSIFSINTMGWYRQAPGKERELVAAITRSGSGTYYADSVKGRFTISRDNAKNTVYLQMNSLKPEDTAVYYCAKPAGARLGYWGQGTQVTVSS ?
Output line: low polyreactivity

Input line: # get_value(readout='polyreactivity (PSR sort gate)', item= QVQLVESGGGLVQAGGTLRLSCAASGSTFLTNAMGWNRPAPGKERELVAAIRTSGGSTYYADSVKGRFTISRDNAKNTFYVLMNSLKPEDTAVYYCAASYLRRRFSEYYYWGQGTQVTVSS )
Output line: high polyreactivity

====

- test.summary: yeast display, Sf9 membrane polyspecificity reagent, FACS + sequencing; frameworks hold sequencing errors
measured.parameter: polyreactivity (PSR sort gate)

// below: answered sequences
QVQLVESGGGLVQAGGSLRLSCAASGSTFPYYVMGWYRQAPGKERELVATITNSGGSTYYADSVKGRFTISRDNAKNTVYLQMNSLKPEDTAVYYCAAVYWYGLYHRYYYWGQGTQVTVSS: low polyreactivity
QVQLVESGVGIVQAGGSLRLSCAASGSTLVYYDMGWYRQAPGKERELVATITGTDSTYYADSVKGRFTISRDNAKNTVYLQMNSLKPEDTADCAADRAGSRPDYDYWGQGTQVTVSS: low polyreactivity
QVQLVESGGGLVQAGGSLRLSCAASGLTFVANAMGWYRQAPGKERELVAAISRRGTRTYYADSVKGRFTISRDNAKNTVYLQMNSLKPEDTAVYYCAAEYNSEYDYWGQGTQVTVSS: high polyreactivity
QVQLVESGGGLVQAGGSLRLSCAASGRIFVRNAMGWYRQAPGKERELVAAISWSSGGPYYADSVKGRFTISRDNAKNTVYLQMNSLKPDDTAVYYCNADPSRAGDYWGQGTQVTVSS: low polyreactivity
QVQLVESGGGLVQAGGSLRLSCAPSGLTIVTYAMGWYRQAPRKERELVAAISRSGGSTYYADSVKGRFTISRDNAKNTVYLQMNSLKPEDSAVYYCNAYSYVDLWAVYRYDYWGQGTQVTVSS: high polyreactivity

Read the next record carefully.
Input line: Report polyreactivity (PSR sort gate) for QVHLVESGGGLVQARGSLRLSCAASGSTIGYNTMVWYRQAPGKERELVAAITSGGRTYYADSVKGRFTISRDYAKNTVYLQMNSLKPEDSAVYYCAAYYWWGYPENEYWGQGTQVTVSS please.
Output line: high polyreactivity
